# System: Escherichia coli TOP10;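 further: peptides expressed intracellularly from a pBAD plasmid library in pooled LB shake-flask culture, induced with 0.3% L-arabinose, DNA abundance read by NGS, three biological replicates, DESeq2 with apeglm shrinkage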
# METHOD_SUMMARY: shrunken log2 fold change of peptide-encoding DNA abundance (4.5 h post-induction vs induction); higher = less antimicrobial activity (less host growth inhibition)
# EXPERIMENTAL_SETUP: time post-induction: 4.5 h; library: site-saturation at positions 5, 18, 19, 20
PROPERTY_NAME: shrunken log2 fold change
API note: the answer field is a bare number with no unit suffix.

Q) Assign shrunken log2 fold change to the following record: "RRIRIRPPRLPRPRPRPPDWPRP"
A) 0.286

Q) Assign shrunken log2 fold change to the following record: "RRIRQRPPRLPRPRPRPDVWPRP"
A) -0.0325

Q) Assign shrunken log2 fold change to the following record: "RRIRARPPRLPRPRPRPLSLPRP"
A) -0.0486

Q) Assign shrunken log2 fold change to the following record: "RRIRLRPPRLPRPRPRPQSAPRP"
A) -0.372
